// provenance: patent US20230174627A1

ASSAYED SYSTEM: T1, recombinant EBOV GP (Ebola virus (EBOV), UniProt Q05320 33-650)
T1 sequence: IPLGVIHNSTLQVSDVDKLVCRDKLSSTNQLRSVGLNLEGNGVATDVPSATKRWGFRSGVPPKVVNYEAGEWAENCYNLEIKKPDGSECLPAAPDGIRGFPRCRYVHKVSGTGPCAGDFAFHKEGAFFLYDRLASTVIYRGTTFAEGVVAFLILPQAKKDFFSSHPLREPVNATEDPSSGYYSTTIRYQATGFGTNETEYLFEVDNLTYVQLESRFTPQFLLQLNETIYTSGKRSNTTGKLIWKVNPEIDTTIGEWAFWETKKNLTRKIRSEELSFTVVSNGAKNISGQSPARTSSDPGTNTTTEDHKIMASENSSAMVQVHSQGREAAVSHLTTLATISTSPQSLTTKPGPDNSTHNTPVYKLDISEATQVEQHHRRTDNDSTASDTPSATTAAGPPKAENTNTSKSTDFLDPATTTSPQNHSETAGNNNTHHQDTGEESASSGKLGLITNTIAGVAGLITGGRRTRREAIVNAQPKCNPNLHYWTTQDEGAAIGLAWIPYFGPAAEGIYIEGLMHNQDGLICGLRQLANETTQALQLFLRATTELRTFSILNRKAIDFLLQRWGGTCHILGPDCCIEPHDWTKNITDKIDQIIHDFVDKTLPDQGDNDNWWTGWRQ
ASSAY: ELISA on plates coated with recombinant EBOV GP
MEASUREMENT LABEL: binding result

BINDER | RESULT
X10H2 human IgG1 chimeric mAb (antibody, V domains shown) VH: QVQLEQSGAEVKKPGTSVKVSCKASGFTFGSDAISWVRQAPGQGLEWMGVIIPVVGARTYAEKFQGRITITADTSTSTVFMDLSSIRSDDTAVYYCAREGARAATGHYKSMDIWGRGTLV VL: EIELTQSPSSLYASVGDKVTITCRASQGISTYLNWYQQKPGKAPKLLIYAASSLQSGVPSRFSGSGSGTEFTLTISSLQPEDFAAVYCQQYNSYPRTFGQGTKVEIK | no binding
X10F3 human IgG1 chimeric mAb (antibody, V domains shown) VH: QVQLEQSGAEVKKPGTSVKVSCKASGFFTFGSDAISWVRQAPGQGLEWMGVIIPVVGARTYAEKFQGRITITADTSTSTVFMDLSSLRSDDTAVYYCAREGARAATGHYKSMDIWGRGRTLV VL: ELQMTQSPSSLSASVGDRVTITCRASQDIGPFLNWYQHKPGKPPKLLIYDVSNLQDGVPSTFSGSGSGTDFTLTISNLQPEDFATYYCLHYANYPRTFGPGTKVEIK | no binding
X10B1 human IgG1 chimeric mAb (antibody, V domains shown) VH: EVQLLESGPSLVKPSETLTLTCAVSGASISGDYLNWIRQPPGKGLEWIGGIFGSGGSTDYSPSFKSRVTISTDTSKNQFSLKLTSMTTADTAVYFCATALRGARFDAFDFWGQGRRV VL: DIELTQSPATLSLSPGERATLSCRASQSVSTYLAWYQKKPGQAPRLLFYGASNRATGIPDRFSGRRSGTDFTLTISSLEPEDVGVYYCQQYNKWNSFGQGTKVEIK | no binding
